assay target: Luciferin 4-monooxygenase (Photinus pyralis) (UniProt P08659)
Sequence (P08659 whole entry, looked up): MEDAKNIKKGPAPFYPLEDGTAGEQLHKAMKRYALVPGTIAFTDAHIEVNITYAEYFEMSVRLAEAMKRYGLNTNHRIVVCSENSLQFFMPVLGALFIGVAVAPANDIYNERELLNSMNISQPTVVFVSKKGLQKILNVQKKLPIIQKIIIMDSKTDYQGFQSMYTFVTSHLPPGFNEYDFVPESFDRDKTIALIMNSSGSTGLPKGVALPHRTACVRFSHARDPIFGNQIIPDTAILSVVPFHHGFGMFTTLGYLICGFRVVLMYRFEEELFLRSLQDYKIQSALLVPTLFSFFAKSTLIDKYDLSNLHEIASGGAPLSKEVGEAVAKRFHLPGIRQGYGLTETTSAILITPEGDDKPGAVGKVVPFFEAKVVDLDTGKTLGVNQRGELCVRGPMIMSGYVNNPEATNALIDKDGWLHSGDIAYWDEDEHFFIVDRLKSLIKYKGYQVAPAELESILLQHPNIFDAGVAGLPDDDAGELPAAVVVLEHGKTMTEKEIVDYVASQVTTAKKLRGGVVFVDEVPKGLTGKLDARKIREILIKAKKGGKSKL
method notes: qHTS assay to identify small molecule inhibitors of firefly luciferase (AID 1224835); further: on the % scale 0 is the no-effect control and ±100 the full control effect; nearly all actives have a fitted effect of over 25% in size
condition info: purified P. pyralis luciferase, luminescence inhibition; series mostly up to 115 µM
Records with an inconclusive call do not appear. Active and inactive are the calls of the source. The call rests on the fitted dose curve; in most records, active means well fitted inhibition curve with a large enough effect in the repeat runs; inconclusive means weak or mixed curves; inactive means flat fitted curve, though single readings scatter.
reported property: outcome

Would you please look over these solved cases?
O=Cc1ccc(Cl)c(Cl)c1 ... inactive
O=C1O[C@@H]2[C@@H](O)[C@H](O)O[C@@H]2[C@H]1O ... inactive
CCOCCOCCOCC ... inactive
CC(C)CC(C)CC(C)CC(C)COC(=O)c1ccccc1C(=O)OCC(C)CC(C)CC(C)CC(C)C (stereo not drawn) ... inactive

List reported outcome for each of these molecules:
1. C[C@H](N)[C@H](O)c1cccc(O)c1
2. O=C(NCCN1CCOCC1)c1ccc(Cl)cc1
3. CC(CO)c1ccccc1 (stereo not drawn)
4. CC(C)(C)c1cc(CCC(=O)NN)cc(C(C)(C)C)c1O
5. CC(CN)CC(C)(C)CCN (stereo not drawn)
6. CC(=O)Nc1ccc(S(=O)(=O)Nc2ccc([N+](=O)[O-])cc2)cc1
7. CCCOC(OCCC)OCCC

1. inactive
2. inactive
3. inactive
4. inactive
5. inactive
6. inactive
7. inactive

For every item below, please supply its outcome.
1. CCCOC(=O)C(C)O (stereo not drawn)
2. COC(=O)c1ccccc1C(=O)c1ccc(OCCN2CCCCC2)cc1

1: inactive; 2: inactive

###

method notes: qHTS assay to identify small molecule antagonists of the farnesoid-X-receptor (FXR) signaling pathway - cell viability counter screen (AID 743221); further: on the % scale 0 is the no-effect control and ±100 the full control effect; nearly all actives have a fitted effect of over 50% in size
condition info: FXR-bla HEK293T viability, CellTiter-Glo luminescence, 16 h; series mostly up to 62.6 µM
Records with an inconclusive call do not appear. The source made the active and inactive calls. Calls follow the shape of the dose curve; as a rule, active = well fitted cell-killing curve with a large enough effect in the repeat runs (not every such curve was filed as active); inconclusive = weak or mixed curves, or effect the other way; inactive = no such curve, though single readings can be large or run the other way.
reported property: activity change, negative = cytotoxicity

Illustrative cases are given below, each with its answer.
Cc1cc(Cl)c(C)cc1Cl ... inactive
C=Cc1ccccn1 ... inactive
CCCCNC1CC(C)(C)NC(C)(C)C1 ... inactive
COc1ccc2c(c1OC)C(=O)O[C@@H]2[C@H]1c2c(cc3c(c2OC)OCO3)CCN1C ... inactive
O=C(NCCN1CCOCC1)c1ccc(Cl)cc1 ... inactive

Next, consider the following compound.
# activity change, negative = cytotoxicity (compound: C[C@H](CCC(=O)O)[C@H]1CC[C@H]2[C@@H]3C(=O)C[C@@H]4CC(=O)CC[C@]4(C)[C@H]3CC(=O)[C@]12C ) is inactive

###

method notes: qHTS RealTime-Glo MT Cell Viability Assay in HEK293 cells - 40 hour (AID 1224874); further: on the % scale 0 is the no-effect control and ±100 the full control effect; nearly all actives have a fitted effect of over 50% in size
condition info: RealTime-Glo luminescence; active compounds read low
Inconclusive results are not listed.
Hi there, I'd appreciate the recorded max response for every entry that follows.
Answers are plain numbers, in %.

Recorded results for 10 compounds are shown here.
COC(=O)CCCCCCCC(=O)OC ... 11.9
CCOCCOC(=O)/C=C/c1ccc(OC)cc1 ... 4.37
CC(=O)Nc1ccc(S(=O)(=O)Nc2ccc([N+](=O)[O-])cc2)cc1 ... -8.9
C=CC(OCC)OCC ... 8.05
CCCCOCCOC(=O)COc1nc(Cl)c(Cl)cc1Cl ... 7.86
C[Si](C)=O ... 0.522
CC1(C)S[C@@H]2[C@H](N=CN3CCCCCC3)C(=O)N2[C@H]1C(=O)O ... 6.57
C=C(C)C(=O)OCCN(CC)CC ... 2.31
CNS(=O)(=O)CCc1ccc2[nH]cc(C3CCN(C)CC3)c2c1 ... -4.37
COc1cc2c(cc1OC)[C@@H]1CC(=O)[C@@H](CC(C)C)CN1CC2 ... -11.9

Look up max response for the entries below, preserving their order.
1. CCCCCCCCSCC
2. CCCCCCCCCCl
3. CC(C)(C)OC(=O)c1ccc(O)cc1
4. CCCCC(CC)COCCO (stereo not given)

1: 7.92; 2: -0.474; 3: -26.7; 4: -0.338

Lab book: max response of CC/C=C\CC1=C(C)CCC1=O noted as 0.983
